Target: glucagon receptor (human, UniProt P47871 26-477)
Sequence (P47871 26-477): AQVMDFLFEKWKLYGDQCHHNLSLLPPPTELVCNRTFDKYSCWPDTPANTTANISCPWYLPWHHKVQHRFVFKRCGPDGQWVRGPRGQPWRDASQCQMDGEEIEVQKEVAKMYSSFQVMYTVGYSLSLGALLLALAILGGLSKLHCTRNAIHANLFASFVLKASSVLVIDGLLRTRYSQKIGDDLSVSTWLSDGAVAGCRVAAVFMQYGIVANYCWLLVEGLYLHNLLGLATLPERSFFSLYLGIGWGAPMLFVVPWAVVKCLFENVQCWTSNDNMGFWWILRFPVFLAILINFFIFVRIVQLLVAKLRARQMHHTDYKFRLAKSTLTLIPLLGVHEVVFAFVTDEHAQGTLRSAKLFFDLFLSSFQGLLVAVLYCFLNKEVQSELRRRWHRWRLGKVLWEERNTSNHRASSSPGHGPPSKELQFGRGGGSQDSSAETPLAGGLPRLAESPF
Assay: cell-based or functional assay
No end group written: not given here.
Can you tell me % Relative Activity vs native glucagon for the items I'm about to list?
Give just the number in %; leave the unit off.

Field request: % Relative Activity vs native glucagon | item: HSQGTFTSDYSKYLDERRAKEFVQWLMNT-NH2 (not fully specified; also: further groups not given here) [Glucagon Analog 68]
104

Field request: % Relative Activity vs native glucagon | item: HSQGTFTSDYSKYLDEKRAKEFVQWLMNT-NH2 (not fully specified; also: further groups not given here) [Glucagon Analog 65]
264

Field request: % Relative Activity vs native glucagon | item: HSQGTFTSDYSKYLDEKRAKEFVCWLLDGGPSSGAPPPS-NH2 (not fully specified; also: further groups not given here) [Glucagon Analog 61]
88

Field request: % Relative Activity vs native glucagon | item: HSQGTFTSDYSKYLDERRAKDFVQWLMNT-NH2 (not fully specified; also: further groups not given here) [Glucagon Analog 67]
93
